# experimentDescription: qHTS of pediatric cancer cell lines to identify multiple opportunities for drug repurposing: Primary screen for U-2 OS cells (AID 1347096);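 further: plate controls were DMSO wells for no effect and bortezomib positive control wells for full effect; nearly all actives have a fitted effect of over 50% in size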
# measurementContext: U-2 OS viability, CellTiter-Glo luminescence, 48 h; series mostly up to 46 µM
Results filed as inconclusive are left out. The source made the active and inactive calls. The call rests on the fitted dose curve; in most records, active means well fitted cell-killing curve with a large enough effect; inconclusive means small, poorly fitted or top-dose-only effect; inactive means flat fitted curve, though single readings scatter.
Permitted responses: true = active, false = inactive

Query: recorded result category for CCCC(C)(COC(N)=O)COC(=O)NC(C)C (stereo not given) in this test
false

* * *

Listed compounds paired with reported parasite growth, % of control (lower = inhibition)
# experimentDescription: qHTS profiling of the MIPE4 collection as inhibitors of Plasmodium falciparum (DD2) proliferation (Rep 2) (AID 743346)
# measurementContext: P. falciparum Dd2 in erythrocytes, SYBR Green DNA, 72 h; at 28.5 µM (top of the series) unless noted
Form field: result (number plus unit)

compound	dataValue
Fc1ccc(C(OCCN2CCN(CCCc3ccccc3)CC2)c2ccc(F)cc2)cc1	10.9%
Cc1c(OCC(F)(F)F)ccnc1CS(=O)c1nc2ccccc2[nH]1 (stereo unspecified)	42.1%
N[C@@H](Cc1ccc(N(CCCl)CCCl)cc1)C(=O)O	31.9%
CNCC(O)c1ccc(O)cc1 (stereo unspecified)	71%
CC(O)(CS(=O)(=O)c1ccc(F)cc1)C(=O)Nc1ccc(C#N)c(C(F)(F)F)c1 (stereo unspecified)	64.8%
O=NN(CCCl)C(=O)NCCCl	150%
CN(C)CCN(C)CCc1ccc(Cl)c(Cl)c1	18.2%
C=C(C)[C@H]1Cc2c(ccc3c2O[C@@H]2COc4cc(OC)c(OC)cc4[C@@H]2C3=O)O1	35.5%
CC(C)CC(N(C)C)C1(c2ccc(Cl)cc2)CCC1 (stereo unspecified)	137%
Cc1cccc(C)c1NC(=O)CN1CCCC1=O	129%

Next item in the queue.
Endpoint output: parasite growth, % of control (lower = inhibition) of Cc1sc2c(c1C)C(c1ccc(Cl)cc1)=N[C@@H](CC(=O)OC(C)(C)C)c1nnc(C)n1-2 . Value?
29.2%
